Please provide measured remaining activity at 0.1 µM for the entries that follow.
Target: Bcl-xL (Homo sapiens, UniProt Q07817)
Construct: Measured levels of Bcl-xL protein of HCT116 cells treated with the tested compounds; host or cells: HCT116
Sequence (Q07817 whole entry): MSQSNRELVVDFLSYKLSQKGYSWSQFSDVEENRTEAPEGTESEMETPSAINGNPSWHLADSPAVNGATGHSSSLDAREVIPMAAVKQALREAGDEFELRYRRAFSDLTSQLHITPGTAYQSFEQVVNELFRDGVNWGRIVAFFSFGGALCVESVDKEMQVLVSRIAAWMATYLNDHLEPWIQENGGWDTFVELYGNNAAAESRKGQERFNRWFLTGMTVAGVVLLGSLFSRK
Test: HCT116 Bcl-xL degradation, capillary-based immunoassay (WES)
Type: cell-based
Conditions: HCT-116; HCT116, 100 nM, 24 h; % of untreated cells
The reply should contain only the number, in %.

remaining activity at 0.1 µM reported for this molecule Cc1cc(N(CCCCCn2cc(COCCOCCOCCNc3cccc4c3C(=O)N(C3CCC(=O)NC3=O)C4=O)nn2)c2ccc(-c3cnn(C[C@@]45C[C@]6(C)C[C@](C)(C4)C[C@](OCCN(C)C)(C6)C5)c3C)c(C(=O)O)n2)nnc1Nc1nc2ccccc2s1 (stereo partly drawn) [Example 62] : 7

Note to self: remaining activity at 0.1 µM recorded for Cc1ncsc1-c1ccc([C@H](C)NC(=O)[C@@H]2C[C@@H](O)CN2C(=O)[C@@H](NC(=O)CCCCCCCCCCCCCCCN(C)CCOC23CC4(C)CC(C)(CC(Cn5ncc(-c6ccc(N7CCCc8c7nnc(Nc7nc9ccccc9s7)c8C)nc6C(=O)O)c5C)(C4)C2)C3)C(C)(C)C)cc1 [Example 1] was 9

Looking up Cc1ncsc1-c1ccc([C@H](C)NC(=O)[C@@H]2CC(O)CN2C(=O)[C@@H](NC(=O)CCCCCCCCCCCCCCN(C)CCOC23CC4(C)CC(C)(CC(Cn5ncc(-c6ccc(N7CCCc8c7nnc(Nc7nc9ccccc9s7)c8C)nc6C(=O)O)c5C)(C4)C2)C3)C(C)(C)C)cc1 (stereo in doubt) [Example 7] , I found its remaining activity at 0.1 µM recorded as 34
